These data points were gathered from PubChem BioAssay (NCI).

- protocol: NCI Yeast Anticancer Drug Screen. Data for the sgs1 mgt1 strain (AID 161);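 note: 0% = growth of cultures given vehicle only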
- measurement.setup: S. cerevisiae sgs1 mgt1 strain, at 50.0 µM, stronger effect = higher value
This is part of a sample that, as a whole, favours compounds with a hit. Of some 79,000 tested, about 15% had one in any assay.
Measured growth inhibition of individual entries

line.notation: Cc1ccc(S(=O)(=O)NCC(=O)OCc2ccccc2)cc1
growth inhibition, %: 1.2

line.notation: O=C(Nc1ccc([N+](=O)[O-])cc1)Nc1nccnn1
growth inhibition, %: 10.6

line.notation: COC1(OC)c2no[n+]([O-])c2C(OC)(OC)c2c1no[n+]2[O-]
growth inhibition, %: -6.35

line.notation: O=C(O)CCNC(=O)c1ccccc1O
growth inhibition, %: -17.1

line.notation: CNc1ccc(/C=C/c2ccnc3ccccc23)cc1
growth inhibition, %: 68.3

line.notation: COC(=O)c1ccc(C[P+](c2ccccc2)(c2ccccc2)c2ccccc2)cc1
growth inhibition, %: 44.3

line.notation: COC(=O)C(CCS(=O)(=O)CC(=O)C(=O)Nc1cccc(C(C)=O)c1)C(=O)OC
growth inhibition, %: -16.1

line.notation: N#C/C(=C\c1cccs1)C(N)=S
growth inhibition, %: -6.45

line.notation: CC(=O)Nc1ccc(/C=N\NC(=S)Nc2ccc(F)cc2)cc1
growth inhibition, %: -3.9

line.notation: CSc1nc(SC)c2nc(SC)n(-c3ccccc3)c2n1
growth inhibition, %: 7.85

line.notation: CCCC[N+](CCCC)(CCCC)CC(=O)[O-]
growth inhibition, %: -19.8

line.notation: COc1cc(C)c([N+](=O)[O-])cc1[N+](=O)[O-]
growth inhibition, %: 9.65
